# MEASUREMENT PROTOCOL: Biodistribution of GAE in liver, kidney, heart, spleen and brain after oral administration
# Format: in vivo, mice
# REPORTED CONDITIONS: male, C57BL/6, mouse, spleen, po, 200 mg/kg, GAE treated animals; 1 h; 200 mg/kg b.wt oral; read-out: GAE concentration in the spleen
READOUT LABEL: concentration at 1 h (ng/g)
Numbers only; they are read as ng/g.

Inquiry: // lookup concentration at 1 h for CCOC(=O)c1cc(O)c(O)c(O)c1 [GAE, Ethyl 3,4,5-trihydroxybenzoate]
Reply text: 484

* * *

# MEASUREMENT PROTOCOL: Stability of GAE in mice plasma and liver homogenate (QC samples)
# Assay type: in vitro ADME
# REPORTED CONDITIONS: mouse; plasma; 500 ng/mL; three consecutive freeze thaw cycles (−20 °C to room temperature)
READOUT LABEL: freeze-thaw stability (fraction remaining) at 500 ng/mL
Lab note: jot down the number only; don't add units.

Inquiry: // lookup freeze-thaw stability (fraction remaining) at 500 ng/mL for CCOC(=O)c1cc(O)c(O)c(O)c1 [GAE, Ethyl 3,4,5-trihydroxybenzoate]
Reply text: 0.934

* * *

# MEASUREMENT PROTOCOL: Biodistribution of GAE in liver, kidney, heart, spleen and brain after oral administration
# Format: in vivo, mice
# REPORTED CONDITIONS: male, C57BL/6, mouse, brain, po, 200 mg/kg, GAE treated group; 1 h; 200 mg/kg b.wt oral; read-out: concentration of GAE in the brain
READOUT LABEL: concentration at 1 h (ng/g)
Numbers only; they are read as ng/g.

Inquiry: // lookup concentration at 1 h for CCOC(=O)c1cc(O)c(O)c(O)c1 [GAE, Ethyl 3,4,5-trihydroxybenzoate]
Reply text: 283

* * *

# MEASUREMENT PROTOCOL: Biodistribution of GAE in liver, kidney, heart, spleen and brain after oral administration
# Assay type: in vivo, mice
# REPORTED CONDITIONS: male, C57BL/6, mouse, spleen, po, 200 mg/kg, R + GAE group (5 Gy); 1 h; 200 mg/kg b.wt oral; read-out: GAE concentration in the spleen
READOUT LABEL: concentration at 1 h (ng/g)
Numbers only; they are read as ng/g.

Inquiry: // lookup concentration at 1 h for CCOC(=O)c1cc(O)c(O)c(O)c1 [GAE, Ethyl 3,4,5-trihydroxybenzoate]
Reply text: 522

* * *

# MEASUREMENT PROTOCOL: Stability of GAE in mice plasma and liver homogenate (QC samples)
# Assay type: in vitro ADME
# REPORTED CONDITIONS: mouse; plasma; 50 ng/mL; three consecutive freeze thaw cycles (−20 °C to room temperature)
READOUT LABEL: freeze-thaw stability (fraction remaining) at 50 ng/mL

Inquiry: // lookup freeze-thaw stability (fraction remaining) at 50 ng/mL for CCOC(=O)c1cc(O)c(O)c(O)c1 [GAE, Ethyl 3,4,5-trihydroxybenzoate]
Reply text: 0.79

Origin of measurements: paper PMC6906394
